Values from patent US20170320870A1

Provide the reported IC50 of each item.
# Test system: LRRK2 wild type (recombinant human, catalytic domain amino acids 970-2527, GST-tagged) (Homo sapiens)
# Construct: The wild type used was recombinant human, catalytic domain (amino acids 970-2527) GST-tagged, expressed in insect cells; GST
# Protocol notes: LRRK2 wild type protein kinase assay ([γ-33P] ATP, peptide substrate […]), IC50
# Details: LRRK2 (variant not given); read-out: Potency score, LRRK2 IC50

Ask | Dear colleague, I am looking for the recorded IC50 of the following compound: Cc1n[nH]c2ccnc(N3CCN(c4ccccn4)CC3)c12 [Example 9]
Reply | 1000 to 10000 nM

Ask | Dear colleague, I am looking for the recorded IC50 of the following compound: Cc1n[nH]c2ccnc(NC3CCS(=O)(=O)CC3)c12 [Example 46]
Reply | 100 to 1000 nM

Ask | Dear colleague, I am looking for the recorded IC50 of the following compound: Cc1n[nH]c2ccnc(NC3CCN(C(=O)C4CCC4)CC3)c12 [Example 104]
Reply | 1000 to 10000 nM

Ask | Dear colleague, I am looking for the recorded IC50 of the following compound: CC(C)CN(C)C(=O)CCc1n[nH]c2ccnc(NC3CCCCC3)c12 [Example 182]
Reply | 100 to 1000 nM

Ask | Dear colleague, I am looking for the recorded IC50 of the following compound: CCN(CC)C(=O)C1CCCN(C(=O)CCc2n[nH]c3ccnc(NC4CCCCC4)c23)C1 (centres unmarked) [Example 193]
Reply | 100 to 1000 nM

###

Provide the reported pIC50 of each item.
# Test system: LRRK2 wild type (recombinant human, catalytic domain amino acids 970-2527, GST-tagged) (Homo sapiens)
# Construct: The wild type used was recombinant human, catalytic domain (amino acids 970-2527) GST-tagged, expressed in insect cells; GST
# Protocol notes: LRRK2 wild type protein kinase assay ([γ-33P] ATP, peptide substrate […]), IC50
# Details: LRRK2 (variant not given); read-out: Potency score, LRRK2 IC50
pIC50: −log10 of the molar value.

Ask | Dear colleague, I am looking for the recorded pIC50 of the following compound: Cc1n[nH]c2ccnc(Nc3ccc4c(cnn4C)c3)c12
Reply | 6.00 to 7.00

Ask | Dear colleague, I am looking for the recorded pIC50 of the following compound: Cc1n[nH]c2ccnc(NC(C)C(C)C)c12 (stereo not shown)
Reply | 6.00 to 7.00

Ask | Dear colleague, I am looking for the recorded pIC50 of the following compound: Cc1n[nH]c2ccnc(N[C@@H](C)c3ccccc3)c12
Reply | 5.00 to 6.00

Ask | Dear colleague, I am looking for the recorded pIC50 of the following compound: c1ccc(-c2nnc(CCc3n[nH]c4ccnc(NC5CCCCC5)c34)o2)cc1
Reply | 6.00 to 7.00

Ask | Dear colleague, I am looking for the recorded pIC50 of the following compound: O=C(CCc1n[nH]c2ccnc(O)c12)N1CCC[C@H](c2ccccc2)C1
Reply | 5.00 to 6.00

Ask | Dear colleague, I am looking for the recorded pIC50 of the following compound: Cc1n[nH]c2ccnc(NCc3ccccc3Cl)c12
Reply | 6.00 to 7.00

Ask | Dear colleague, I am looking for the recorded pIC50 of the following compound: c1cc2[nH]nc(N3CCCC3)c2c(OC2CCCCC2)n1
Reply | 6.00 to 7.00

Ask | Dear colleague, I am looking for the recorded pIC50 of the following compound: Cc1nc2cc(Nc3nccc4[nH]nc(C)c34)ccc2s1
Reply | 5.00 to 6.00

Ask | Dear colleague, I am looking for the recorded pIC50 of the following compound: Cc1n[nH]c2ccnc(OC3CCN(C(C)C)CC3)c12
Reply | 5.00 to 6.00

Ask | Dear colleague, I am looking for the recorded pIC50 of the following compound: O=C(Nc1ccc2nccnc2c1)c1ccc(CCc2n[nH]c3ccnc(NC4CCCCC4)c23)cc1
Reply | > 7.00

###

# Test system: LRRK2 wild type (recombinant human, catalytic domain amino acids 970-2527, GST-tagged) (Homo sapiens, UniProt Q5S007)
# Construct: The wild type used was recombinant human, catalytic domain (amino acids 970-2527) GST-tagged, expressed in insect cells; GST
# Sequence (Q5S007 970-2527): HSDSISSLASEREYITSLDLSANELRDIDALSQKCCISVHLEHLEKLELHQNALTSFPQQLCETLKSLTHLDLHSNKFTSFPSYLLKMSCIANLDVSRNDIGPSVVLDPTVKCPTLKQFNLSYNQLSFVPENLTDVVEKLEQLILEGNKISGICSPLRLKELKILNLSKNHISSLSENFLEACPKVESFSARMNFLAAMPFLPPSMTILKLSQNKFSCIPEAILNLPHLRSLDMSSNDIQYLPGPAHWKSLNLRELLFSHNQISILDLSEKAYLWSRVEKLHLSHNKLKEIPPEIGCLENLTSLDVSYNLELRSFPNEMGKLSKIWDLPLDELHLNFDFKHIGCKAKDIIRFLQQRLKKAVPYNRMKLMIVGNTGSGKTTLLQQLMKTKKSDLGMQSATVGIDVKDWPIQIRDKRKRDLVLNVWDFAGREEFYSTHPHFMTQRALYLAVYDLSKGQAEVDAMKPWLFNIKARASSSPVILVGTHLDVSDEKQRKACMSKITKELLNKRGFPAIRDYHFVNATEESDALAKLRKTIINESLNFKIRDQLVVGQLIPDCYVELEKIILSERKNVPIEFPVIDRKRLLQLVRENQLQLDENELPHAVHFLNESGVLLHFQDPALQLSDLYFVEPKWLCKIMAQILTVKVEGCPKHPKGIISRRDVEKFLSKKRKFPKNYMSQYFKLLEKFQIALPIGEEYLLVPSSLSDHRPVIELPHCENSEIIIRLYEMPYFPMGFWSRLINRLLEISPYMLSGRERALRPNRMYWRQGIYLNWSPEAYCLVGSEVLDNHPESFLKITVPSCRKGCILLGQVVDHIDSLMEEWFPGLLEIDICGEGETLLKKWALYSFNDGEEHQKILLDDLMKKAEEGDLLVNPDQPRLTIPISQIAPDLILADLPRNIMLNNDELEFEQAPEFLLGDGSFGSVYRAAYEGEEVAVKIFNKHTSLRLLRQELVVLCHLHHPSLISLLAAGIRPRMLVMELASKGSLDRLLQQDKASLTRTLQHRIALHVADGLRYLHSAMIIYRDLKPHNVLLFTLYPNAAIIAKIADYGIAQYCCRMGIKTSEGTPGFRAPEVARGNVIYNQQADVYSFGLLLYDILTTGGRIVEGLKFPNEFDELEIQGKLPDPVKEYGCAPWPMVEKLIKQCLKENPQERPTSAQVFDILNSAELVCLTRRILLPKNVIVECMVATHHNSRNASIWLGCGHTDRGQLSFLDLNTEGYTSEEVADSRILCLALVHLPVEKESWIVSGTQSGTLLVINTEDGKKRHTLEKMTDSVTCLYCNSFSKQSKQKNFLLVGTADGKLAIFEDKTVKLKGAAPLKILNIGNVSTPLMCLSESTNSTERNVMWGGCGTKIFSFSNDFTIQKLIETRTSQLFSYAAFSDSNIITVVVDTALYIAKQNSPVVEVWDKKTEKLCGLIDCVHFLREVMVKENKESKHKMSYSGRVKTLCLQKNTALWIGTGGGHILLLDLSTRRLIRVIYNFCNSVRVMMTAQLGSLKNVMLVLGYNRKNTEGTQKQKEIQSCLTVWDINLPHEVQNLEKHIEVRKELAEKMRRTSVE
# Protocol notes: LRRK2 wild type protein kinase assay ([γ-33P] ATP, peptide substrate […]), IC50
# Details: LRRK2 (variant not given); read-out: Potency score, LRRK2 IC50
pIC50: −log10 of the molar value.
Provide the reported pIC50 of each item.

Ask | Dear colleague, I am looking for the recorded pIC50 of the following compound: Cc1n[nH]c2ccnc(Nc3cccc(NS(C)(=O)=O)c3)c12
Reply | 6.00 to 7.00

Ask | Dear colleague, I am looking for the recorded pIC50 of the following compound: Cc1n[nH]c2ccnc(NCCc3ccccc3)c12
Reply | 6.00 to 7.00

Ask | Dear colleague, I am looking for the recorded pIC50 of the following compound: O=C(CCc1n[nH]c2ccnc(NC3CCCCC3)c12)N1CCOC(c2ccccc2)C1 (stereo not shown)
Reply | 6.00 to 7.00

Ask | Dear colleague, I am looking for the recorded pIC50 of the following compound: Cc1n[nH]c2ccnc(NC3CCCCCC3)c12
Reply | 6.00 to 7.00

Ask | Dear colleague, I am looking for the recorded pIC50 of the following compound: Cc1n[nH]c2ccnc(NC3CC3)c12
Reply | 5.00 to 6.00

Ask | Dear colleague, I am looking for the recorded pIC50 of the following compound: C[C@@H]1CCCN(C(=O)CCc2n[nH]c3ccnc(NC4CCCCC4)c23)C1
Reply | > 7.00

Ask | Dear colleague, I am looking for the recorded pIC50 of the following compound: CC(=O)Nc1cccc(CCc2n[nH]c3ccnc(NC4CCCCC4)c23)c1
Reply | > 7.00

Ask | Dear colleague, I am looking for the recorded pIC50 of the following compound: O=C(/C=C/c1n[nH]c2ccnc(OC3CCCCC3)c12)N1CCC[C@H](c2ccccc2)C1
Reply | > 7.00

Ask | Dear colleague, I am looking for the recorded pIC50 of the following compound: COc1ccc(CNc2nccc3[nH]nc(C)c23)c(OC)c1
Reply | 5.00 to 6.00

Ask | Dear colleague, I am looking for the recorded pIC50 of the following compound: O=C(CCc1n[nH]c2ccnc(NC3CCCCC3)c12)NCc1cccc(F)c1
Reply | 5.00 to 6.00

Ask | Dear colleague, I am looking for the recorded pIC50 of the following compound: Cc1noc(C2CCCN(C(=O)CCc3n[nH]c4ccnc(NC5CCCCC5)c34)C2)n1 (stereo not shown)
Reply | 6.00 to 7.00

Ask | Dear colleague, I am looking for the recorded pIC50 of the following compound: CC[C@H](C)COc1nccc2[nH]nc(C)c12
Reply | > 7.00

Ask | Dear colleague, I am looking for the recorded pIC50 of the following compound: O=C(NCc1ccco1)c1ccc(CCc2n[nH]c3ccnc(NC4CCCCC4)c23)cc1
Reply | > 7.00

Ask | Dear colleague, I am looking for the recorded pIC50 of the following compound: c1cc2[nH]nc(-c3ccc(N4CCOCC4)nc3)c2c(NC2CCCCC2)n1
Reply | 6.00 to 7.00

Ask | Dear colleague, I am looking for the recorded pIC50 of the following compound: c1cc2[nH]nc(-c3cnc(N4CCOCC4)nc3)c2c(NC2CCCCC2)n1
Reply | 6.00 to 7.00

Ask | Dear colleague, I am looking for the recorded pIC50 of the following compound: Cc1n[nH]c2ccnc(-c3ccco3)c12
Reply | 6.00 to 7.00

Ask | Dear colleague, I am looking for the recorded pIC50 of the following compound: Cn1cnc(C(=O)Nc2ccc(CCc3n[nH]c4ccnc(NC5CCCCC5)c34)cc2)c1
Reply | > 7.00

Ask | Dear colleague, I am looking for the recorded pIC50 of the following compound: Cc1n[nH]c2ccnc(NCCc3cccnc3)c12
Reply | 6.00 to 7.00

Ask | Dear colleague, I am looking for the recorded pIC50 of the following compound: COc1nccc2[nH]nc(/C=C/C(=O)N3CCC[C@@H](C)C3)c12
Reply | > 7.00

###

# Test system: LRRK2 wild type (recombinant human, catalytic domain amino acids 970-2527, GST-tagged) (Homo sapiens, UniProt Q5S007)
# Construct: The wild type used was recombinant human, catalytic domain (amino acids 970-2527) GST-tagged, expressed in insect cells; GST
# Protocol notes: LRRK2 wild type protein kinase assay ([γ-33P] ATP, peptide substrate […]), IC50
# Details: LRRK2 (variant not given); read-out: Potency score, LRRK2 IC50
Provide the reported IC50 of each item.

Ask | Dear colleague, I am looking for the recorded IC50 of the following molecule: COCCNC(=O)CCc1n[nH]c2ccnc(NC3CCCCC3)c12
Reply | 1000 to 10000 nM

Ask | Dear colleague, I am looking for the recorded IC50 of the following molecule: CN(C)C(=O)c1ccc(-c2n[nH]c3ccnc(NC4CCCCC4)c23)cc1
Reply | 1000 to 10000 nM

Ask | Dear colleague, I am looking for the recorded IC50 of the following molecule: Cc1n[nH]c2ccnc(N[C@@H](CO)C(C)C)c12
Reply | 1000 to 10000 nM

Ask | Dear colleague, I am looking for the recorded IC50 of the following molecule: O=C(Nc1ccc(CCc2n[nH]c3ccnc(NC4CCCCC4)c23)cc1)C1CC1
Reply | < 100 nM

Ask | Dear colleague, I am looking for the recorded IC50 of the following molecule: Cc1n[nH]c2ccnc(Nc3ccc(N4CCN(C)CC4)cc3)c12
Reply | 1000 to 10000 nM

Ask | Dear colleague, I am looking for the recorded IC50 of the following molecule: Cc1n[nH]c2ccnc(Nc3cncc(-c4ccc(C#N)cc4)c3)c12
Reply | 100 to 1000 nM

Ask | Dear colleague, I am looking for the recorded IC50 of the following molecule: Cc1n[nH]c2ccnc(-c3ccoc3)c12
Reply | 1000 to 10000 nM

Ask | Dear colleague, I am looking for the recorded IC50 of the following molecule: Cc1n[nH]c2ccnc(OCC(C)C)c12
Reply | < 100 nM

Ask | Dear colleague, I am looking for the recorded IC50 of the following molecule: Clc1ccccc1-c1n[nH]c2ccnc(NC3CCCCC3)c12
Reply | 100 to 1000 nM

Ask | Dear colleague, I am looking for the recorded IC50 of the following molecule: Cc1n[nH]c2ccnc(NCCc3ccccc3F)c12
Reply | 100 to 1000 nM

Ask | Dear colleague, I am looking for the recorded IC50 of the following molecule: Cc1n[nH]c2ccnc(Nc3ccc(C(=O)N(C)C)cc3)c12
Reply | 100 to 1000 nM

Ask | Dear colleague, I am looking for the recorded IC50 of the following molecule: CN1CCOc2cc(-c3n[nH]c4ccnc(NC5CCCCC5)c34)ccc21
Reply | 100 to 1000 nM

Ask | Dear colleague, I am looking for the recorded IC50 of the following molecule: CC(=O)N1CCC(Nc2nccc3[nH]nc(C)c23)CC1
Reply | 100 to 1000 nM

Ask | Dear colleague, I am looking for the recorded IC50 of the following molecule: O=C(CCc1n[nH]c2ccnc(NC3CCCCC3)c12)N1CCCC(Oc2cccnc2)C1 (stereo not shown)
Reply | 100 to 1000 nM

Ask | Dear colleague, I am looking for the recorded IC50 of the following molecule: CN1CCC(C(=O)Nc2cccc(CCc3n[nH]c4ccnc(NC5CCCCC5)c34)c2)CC1
Reply | 100 to 1000 nM

Ask | Dear colleague, I am looking for the recorded IC50 of the following molecule: O=C(Nc1cccc(CCc2n[nH]c3ccnc(NC4CCCCC4)c23)c1)c1cocn1
Reply | < 100 nM

Ask | Dear colleague, I am looking for the recorded IC50 of the following molecule: COc1cccc(-c2n[nH]c3ccnc(NC4CCCCC4)c23)c1
Reply | 100 to 1000 nM

Ask | Dear colleague, I am looking for the recorded IC50 of the following molecule: Cc1n[nH]c2ccnc(Nc3ccc(C(=O)N4CCCC4)cc3)c12
Reply | 100 to 1000 nM

Ask | Dear colleague, I am looking for the recorded IC50 of the following molecule: O=C(Nc1cccc(CCc2n[nH]c3ccnc(NC4CCCCC4)c23)c1)C1CCCC1
Reply | < 100 nM
